testedTarget: ERβ (Homo sapiens, UniProt Q92731)
Construct: made in house; host or cells: E. coli
Sequence (Q92731 264-498 limits assumed): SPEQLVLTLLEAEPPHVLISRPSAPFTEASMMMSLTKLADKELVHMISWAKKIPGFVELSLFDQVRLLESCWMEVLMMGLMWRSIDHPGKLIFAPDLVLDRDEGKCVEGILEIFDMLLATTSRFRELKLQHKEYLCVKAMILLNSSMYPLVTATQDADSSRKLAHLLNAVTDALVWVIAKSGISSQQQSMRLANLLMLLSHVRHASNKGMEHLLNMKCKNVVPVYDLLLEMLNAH
measurementDescription: Competition with [3H]-17β-estradiol for ERβ ligand binding domain
conditionDetails: receptor selectivity, ratio ERα IC50 / ERβ IC50
Label key: 1 means α/β under 20; -1 means α/β of 20 or more.

compound | testedTarget | assignedLabel
Oc1ccc2nc(-c3ccc(O)c(F)c3)cc(-c3ccsc3)c2c1 [Cpd 26] | ERβ (Homo sapiens, UniProt Q92731) | 1
Oc1cc(Br)c2nc(-c3ccc(O)c(F)c3)cc(Br)c2c1 [Cpd 45b] | ERβ (Homo sapiens, UniProt Q92731) | 1
N#Cc1cc(-c2ccc(O)c(F)c2)nc2c(Cl)cc(O)cc12 [Cpd 47] | ERβ (Homo sapiens, UniProt Q92731) | -1
C[Si](C)(C)C#Cc1cc(-c2ccc(O)c(F)c2)nc2ccc(O)cc12 [Cpd 13b] | ERβ (Homo sapiens, UniProt Q92731) | 1
Oc1ccc2nc(-c3cc(F)c(O)c(F)c3)cc(Br)c2c1 [Cpd 6c] | ERβ (Homo sapiens, UniProt Q92731) | -1
Oc1ccc2nc(-c3ccc(O)c(F)c3)cc(-c3ccc(F)cc3)c2c1 [Cpd 22] | ERβ (Homo sapiens, UniProt Q92731) | 1
N#Cc1ccc(-c2cc(O)cc3c(Cl)cc(-c4ccc(O)c(F)c4)nc23)cc1 [Cpd 61] | ERβ (Homo sapiens, UniProt Q92731) | -1
